Hey, just so you know, these numbers are from patent US20240343803A1.

system name: T1, full-length human TIGIT on CHO-K1 cells (CHO-K1 human TIGIT) (human, UniProt Q495A1 22-244)
T1 construct: NCBI XP_024309156.1; entry includes the signal peptide; also called high expression strain 1D2; medium expression strain 2D10
T1 sequence: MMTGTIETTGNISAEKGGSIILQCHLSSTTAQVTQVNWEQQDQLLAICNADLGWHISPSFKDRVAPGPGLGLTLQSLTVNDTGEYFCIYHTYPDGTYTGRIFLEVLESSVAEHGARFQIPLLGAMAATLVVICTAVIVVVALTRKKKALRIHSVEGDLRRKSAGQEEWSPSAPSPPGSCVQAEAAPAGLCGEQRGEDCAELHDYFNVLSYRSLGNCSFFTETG
test protocol: FACS, competition: Bio-CD155-His to CHO-K1 human TIGIT
readout kind: pIC50
Answers are plain numbers, as −log10 of the molar value.

Lookup: Item TIGIT-CHI-002 (antibody, V domains shown, human-mouse chimeric antibody) VH: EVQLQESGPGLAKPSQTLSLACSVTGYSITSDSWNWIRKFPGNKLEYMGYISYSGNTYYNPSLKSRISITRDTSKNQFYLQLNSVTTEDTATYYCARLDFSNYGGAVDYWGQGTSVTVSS VL: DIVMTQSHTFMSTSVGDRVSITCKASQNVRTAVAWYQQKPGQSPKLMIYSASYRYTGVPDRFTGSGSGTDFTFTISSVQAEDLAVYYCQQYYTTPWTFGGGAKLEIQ : provide pIC50
Found: 9.82
